# ASSAY TARGET: human plasma kallikrein (Homo sapiens, UniProt P03952)
# Construct: purchased Enzyme Research Laboratories HPKa 1303
# Sequence (P03952 20-390 limits assumed): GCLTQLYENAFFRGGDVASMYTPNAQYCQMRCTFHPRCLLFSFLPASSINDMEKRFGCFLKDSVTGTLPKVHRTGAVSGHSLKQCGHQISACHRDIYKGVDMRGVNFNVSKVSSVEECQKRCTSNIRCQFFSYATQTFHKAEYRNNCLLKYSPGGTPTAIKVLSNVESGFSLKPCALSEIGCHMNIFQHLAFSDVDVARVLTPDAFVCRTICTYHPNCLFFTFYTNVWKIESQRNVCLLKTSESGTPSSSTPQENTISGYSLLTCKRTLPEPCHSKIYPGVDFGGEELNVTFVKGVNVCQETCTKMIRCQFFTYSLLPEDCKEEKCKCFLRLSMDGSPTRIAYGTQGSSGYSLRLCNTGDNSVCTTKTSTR
# Sequence (P03952 391-638 limits assumed): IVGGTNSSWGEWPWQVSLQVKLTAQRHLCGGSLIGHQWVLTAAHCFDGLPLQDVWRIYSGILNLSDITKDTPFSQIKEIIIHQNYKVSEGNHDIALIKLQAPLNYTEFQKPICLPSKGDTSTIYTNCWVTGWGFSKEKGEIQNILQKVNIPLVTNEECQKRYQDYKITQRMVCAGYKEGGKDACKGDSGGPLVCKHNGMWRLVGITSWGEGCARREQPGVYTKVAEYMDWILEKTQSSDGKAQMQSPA
# EXPERIMENT: Enzyme inhibition assay (fluorogenic substrate H-Pro-Phe-Arg-AMC)
# Type: biochemical
# CONDITION NOTES: Kallikrein inhibitory activity; 1 nM activated human kallikrein, 500 μM H-Pro-Phe-Arg-AMC, 1 hour room temperature; read-out: Avg. IC50
Numbered stars: 1 amine (or outer) side, 2 acyl side, 3 side chain; on linkers, the order of the positions; unused ones are H or OH. Bridge positions count the residues as written; N and C are the ends. Square brackets hold non-standard residues; d marks the D form. Peptide text beside a SMILES is read from it. X1 = O=C(C(N[*:1])C1CCc2ccccc2C1)[*:2]; mXylylene = c1cc(C[*:1])cc(C[*:2])c1; Phg = N[C@H](C(=O)O)c1ccccc1; Tle = CC(C)(C)[C@H](N)C(=O)O; Nva = CCC[C@H](N)C(=O)O; Mpa = O=C(O)CCS
This listing pairs compounds with measured IC50.
Lab book: enter the figure in nM, no units written.

CC(C)(C)[C@H](NC(=O)[C@H](CCCNC(=N)N)NC(=O)[C@@H]1CSCc2cccc(c2)CSCCC(=O)N2CCC[C@H]2C(=O)NC(C2CCc3ccccc3C2)C(=O)N1)C(N)=O (stereo partly drawn) [Compound R2266] ([Mpa]P[X1]CR[Tle]-NH2; linker 1-4 via mXylylene): 118

Here is the next item to consider.
[ask] Enter IC50 (test system human plasma kallikrein (Homo sapiens, UniProt P03952)) for CCC[C@H](N)C(=O)N[C@H]1CSCc2cccc(c2)CSC[C@@H](C(=O)N[C@@H](CCCNC(=N)N)C(=O)N[C@H](C(N)=O)C(C)(C)C)NC(=O)[C@H](c2ccccc2)NC(=O)[C@H](CO)NC(=O)[C@H](CCC(=O)O)NC1=O [Compound R2013, [mXylyl(2,6)]Nvl-CES-Phg-CR-Tbg-NH2] (H-[Nva]CES[Phg]CR[Tle]-NH2; linker 2-6 via mXylylene)
[reply] 6.8

###

# ASSAY TARGET: human plasma kallikrein (Homo sapiens)
# Construct: purchased Enzyme Research Laboratories HPKa 1303
# EXPERIMENT: Enzyme inhibition assay (fluorogenic substrate H-Pro-Phe-Arg-AMC)
# Assay type: biochemical
# CONDITION NOTES: Kallikrein inhibitory activity; 1 nM activated human kallikrein, 500 μM H-Pro-Phe-Arg-AMC, 1 hour room temperature; read-out: Avg. IC50
# Source text: Activated human plasma kallikrein (Enzyme Research Laboratories, HPKa 1303) was reacted with H-Pro-Phe-Arg-7-amido-4-methylcoumarin (H-Pro-Pre-Arg-AMC) (a fluorogenic substrate for plasma as well as pancreatic and urinary kallikreins; Bachem I-1295) and candidate inhibitory peptides to determine the IC50 of the inhibitor. […]
Ends that are not written are not given here.
This listing pairs substances with measured IC50.

The cases that follow already have their IC50 on record.
Ac-CNYWSPWTEA-NH2 [Compound R2127, Ac-CNYWSPWTEA-NH2]: 0.0356 µM
Ac-WSPWTECSA-NH2 [Compound R2119, Ac-WSPWTECSA-NH2]: > 100 µM

[ask] Read off the recorded IC50 for Ac-ANYWSPWTAA-NH2 [Compound R2145, Ac-ANYWSPWTAA-NH2]
[reply] 0.0588 µM

[ask] Read off the recorded IC50 for Ac-YWSPWTECSA-NH2 [Compound R2118, Ac-YW SPWTECSA-NH2]
[reply] > 100 µM

[ask] Read off the recorded IC50 for MCNYWSP-NH2 [Compound R2115, MCNYWSP-NH2]
[reply] > 17.3 µM

[ask] Read off the recorded IC50 for Ac-SPWTECSA-NH2 [Compound R2120, Ac-SPWTECSA-NH2]
[reply] > 100 µM

###

pIC50: −log10 of the molar value. Numbered stars: 1 amine (or outer) side, 2 acyl side, 3 side chain; on linkers, the order of the positions; unused ones are H or OH. Bridge positions count the residues as written; N and C are the ends. Square brackets hold non-standard residues; d marks the D form. Peptide text beside a SMILES is read from it. mXylylene = c1cc(C[*:1])cc(C[*:2])c1; Phg = N[C@H](C(=O)O)c1ccccc1; Tle = CC(C)(C)[C@H](N)C(=O)O; NMeS = CN[C@@H](CO)C(=O)O; Nva = CCC[C@H](N)C(=O)O
// values below are pIC50; system is thrombin (Homo sapiens, UniProt P00734)

The cases that follow already have their pIC50 on record.
CC[C@H](C)[C@@H]1NC(=O)[C@H](CO)NC(=O)[C@H](CCC(=O)O)NC(=O)[C@@H](NC(=O)[C@@H](N)CCSC)CSCc2cccc(c2)CSC[C@@H](C(=O)N[C@@H](CCCNC(=N)N)C(=O)N[C@H](C(N)=O)C(C)(C)C)NC1=O [Compound R2010, [mXylyl(2,6)]MCESICR-Tbg-NH2] (H-MCESICR[Tle]-NH2; linker 2-6 via mXylylene; N-terminus assumed): < 4.00
CCC[C@H](N)C(=O)N[C@H]1CSCc2cccc(c2)CSC[C@@H](C(=O)N[C@@H](CCCNC(=N)N)C(=O)N[C@H](C(N)=O)C(C)(C)C)NC(=O)[C@H](c2ccccc2)NC(=O)[C@@H]2CCCN2C(=O)[C@H](CCC(=O)O)NC1=O [Compound R2030, [mXylyl(2,6)]Nvl-CEP-Phg-CR-Tbg-NH2] (H-[Nva]CEP[Phg]CR[Tle]-NH2; linker 2-6 via mXylylene): < 4.00

[ask] Read off the recorded pIC50 for CC[C@H](C)[C@@H]1NC(=O)[C@H](CO)N(C)C(=O)[C@H](CCC(=O)O)NC(=O)[C@@H](NC(=O)[C@@H](N)CCSC)CSCc2cccc(c2)CSC[C@@H](C(=O)N[C@@H](CCCNC(=N)N)C(=O)N[C@H](C(N)=O)C(C)C)NC1=O [Compound R2019, [mXylyl(2,6)]MCE-nMeS-ICRV-NH2] (H-MCE[NMeS]ICRV-NH2; linker 2-6 via mXylylene; N-terminus assumed)
[reply] < 4.00

###

# ASSAY TARGET: Factor XIa (Homo sapiens, UniProt P03951)
# Sequence (P03951 19-387 limits assumed): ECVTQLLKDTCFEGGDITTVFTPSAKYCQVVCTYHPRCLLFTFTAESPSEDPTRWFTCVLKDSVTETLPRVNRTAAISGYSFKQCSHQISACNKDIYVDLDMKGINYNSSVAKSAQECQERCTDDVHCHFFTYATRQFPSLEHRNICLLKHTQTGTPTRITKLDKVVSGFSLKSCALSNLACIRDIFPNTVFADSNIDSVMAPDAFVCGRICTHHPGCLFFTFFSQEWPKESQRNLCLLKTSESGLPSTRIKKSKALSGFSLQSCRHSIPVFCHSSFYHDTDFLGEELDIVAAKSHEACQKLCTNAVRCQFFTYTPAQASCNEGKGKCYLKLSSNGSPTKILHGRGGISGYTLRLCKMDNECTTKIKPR
# Sequence (P03951 388-625 limits assumed): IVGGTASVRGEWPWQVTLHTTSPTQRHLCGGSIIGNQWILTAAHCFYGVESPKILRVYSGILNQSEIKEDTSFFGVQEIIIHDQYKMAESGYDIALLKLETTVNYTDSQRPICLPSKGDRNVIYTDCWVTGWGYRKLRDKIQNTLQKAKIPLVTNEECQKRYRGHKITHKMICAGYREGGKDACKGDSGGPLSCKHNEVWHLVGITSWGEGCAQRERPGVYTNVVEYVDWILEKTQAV
Numbered stars: 1 amine (or outer) side, 2 acyl side, 3 side chain; on linkers, the order of the positions; unused ones are H or OH. Bridge positions count the residues as written; N and C are the ends. Square brackets hold non-standard residues; d marks the D form. Peptide text beside a SMILES is read from it. mXylylene = c1cc(C[*:1])cc(C[*:2])c1; Phg = N[C@H](C(=O)O)c1ccccc1; Tle = CC(C)(C)[C@H](N)C(=O)O; NMeS = CN[C@@H](CO)C(=O)O; Nva = CCC[C@H](N)C(=O)O
This listing pairs compounds with measured IC50.

The cases that follow already have their IC50 on record.
CCC[C@H](N)C(=O)N[C@H]1CSCc2cccc(c2)CSC[C@@H](C(=O)N[C@@H](CCCNC(=N)N)C(=O)N[C@H](C(N)=O)C(C)(C)C)NC(=O)[C@H](c2ccccc2)NC(=O)[C@@H]2CCCN2C(=O)[C@H](CCC(=O)O)NC1=O [Compound R2030, [mXylyl(2,6)]Nvl-CEP-Phg-CR-Tbg-NH2] (H-[Nva]CEP[Phg]CR[Tle]-NH2; linker 2-6 via mXylylene): > 10.4 µM
CC[C@H](C)[C@@H]1NC(=O)[C@H](CO)NC(=O)[C@H](CCC(=O)O)NC(=O)[C@@H](NC(=O)[C@@H](N)CCSC)CSCc2cccc(c2)CSC[C@@H](C(=O)N[C@@H](CCCNC(=N)N)C(=O)N[C@H](C(N)=O)C(C)C)NC1=O [Compound R2006, [mXylyl(2,6)]MCESICRV-NH2] (H-MCESICRV-NH2; linker 2-6 via mXylylene): > 11.6 µM

Here is the next item to consider.
[ask] Enter IC50 (test system Factor XIa (Homo sapiens, UniProt P03951)) for CC[C@H](C)[C@@H]1NC(=O)[C@H](CO)N(C)C(=O)[C@H](CCC(=O)O)NC(=O)[C@@H](NC(=O)[C@@H](N)CCSC)CSCc2cccc(c2)CSC[C@@H](C(=O)N[C@@H](CCCNC(=N)N)C(=O)N[C@H](C(N)=O)C(C)C)NC1=O [Compound R2019, [mXylyl(2,6)]MCE-nMeS-ICRV-NH2] (H-MCE[NMeS]ICRV-NH2; linker 2-6 via mXylylene; N-terminus assumed)
[reply] > 9.1 µM

###

This listing pairs compounds with measured IC50.
# ASSAY TARGET: human plasma kallikrein (Homo sapiens)
# Construct: purchased Enzyme Research Laboratories HPKa 1303
# EXPERIMENT: Enzyme inhibition assay (fluorogenic substrate H-Pro-Phe-Arg-AMC)
# Assay type: biochemical
# CONDITION NOTES: Kallikrein inhibitory activity; 1 nM activated human kallikrein, 500 μM H-Pro-Phe-Arg-AMC, 1 hour room temperature; read-out: Avg. IC50
Numbered stars: 1 amine (or outer) side, 2 acyl side, 3 side chain; on linkers, the order of the positions; unused ones are H or OH. Bridge positions count the residues as written; N and C are the ends. Square brackets hold non-standard residues; d marks the D form. Peptide text beside a SMILES is read from it. mXylylene = c1cc(C[*:1])cc(C[*:2])c1; Chg = N[C@H](C(=O)O)C1CCCCC1; Phg = N[C@H](C(=O)O)c1ccccc1; Tle = CC(C)(C)[C@H](N)C(=O)O; Ac5c = NC1(C(=O)O)CCCC1; Mpa = O=C(O)CCS
Lab book: enter the figure in nM, no units written.

The cases that follow already have their IC50 on record.
CC(C)(C)[C@H](NC(=O)[C@H](CCCNC(=N)N)NC(=O)[C@@H]1CSCc2cccc(c2)CSCCC(=O)N2CCC[C@H]2C(=O)N[C@@H](c2ccccc2)C(=O)N1)C(N)=O [Compound R2188, [mXylyl(1,4)](des-NH2)C-P-Phg-CR-Tbg-NH2] ([Mpa]P[Phg]CR[Tle]-NH2; linker 1-4 via mXylylene): 3.4
CC[C@H](C)[C@@H]1NC(=O)[C@H](CO)NC(=O)[C@H](CCC(=O)O)NC(=O)[C@@H](NC(C)=O)CSCc2cccc(c2)CSC[C@@H](C(=O)N[C@@H](CCCNC(=N)N)C(=O)N[C@H](C(=O)N[C@@H](CC(C)C)C(=O)N[C@@H](CCCNC(=N)N)C(=O)N[C@@H](Cc2ccc(O)cc2)C(=O)N[C@@H](CO)C(N)=O)C(C)C)NC1=O [Compound R2056, [mXylyl(1,5)]Ac-CESICRVLRYS-NH2] (Ac-CESICRVLRYS-NH2; linker 1-5 via mXylylene): 1.9
CC(C)(C)[C@H](NC(=O)[C@H](CCCNC(=N)N)NC(=O)[C@@H]1CSCc2cccc(c2)C/C=C/CC(=O)N2CCC[C@H]2C(=O)N[C@@H](C2CCCCC2)C(=O)N1)C(N)=O: 164
CC[C@H](C)[C@@H]1NC(=O)[C@H](CO)NC(=O)[C@H](CCC(=O)O)NC(=O)[C@@H](NC(C)=O)CSCc2cccc(c2)CSC[C@@H](C(=O)N[C@@H](CCCNC(=N)N)C(=O)N[C@H](C(N)=O)C(C)C)NC1=O [Compound R2023, [mXylyl(1,5)]Ac-CESICRV-NH2] (Ac-CESICRV-NH2; linker 1-5 via mXylylene): 19

Here is the next item to consider.
[ask] Enter IC50 (test system human plasma kallikrein (Homo sapiens)) for CNC(=O)[C@@H](NC(=O)[C@H](CCCNC(=N)N)NC(=O)[C@@H]1CSCc2cccc(c2)CSCCC(=O)NC2(CCCC2)C(=O)N[C@@H](C)C(=O)N[C@@H](C2CCCCC2)C(=O)N1)C(C)C [Compound R2178] ([Mpa][Ac5c]A[Chg]CRV-NHMe; linker 1-5 via mXylylene)
[reply] 3.2
